Give measured gMFI (fold increase over isotype) for each item. Keep answers brief.
target_of_assay: T1, human CD112R expressed on Jurkat cells (human, UniProt Q6DKI7 1-326)
T1 construct: whole, on cells; Used for both Jurkat-CD112R OE cells and wild type Jurkat cells; which cells is said under assay; also called PVRIG; Jurkat-CD112R OE
T1 sequence (looked up): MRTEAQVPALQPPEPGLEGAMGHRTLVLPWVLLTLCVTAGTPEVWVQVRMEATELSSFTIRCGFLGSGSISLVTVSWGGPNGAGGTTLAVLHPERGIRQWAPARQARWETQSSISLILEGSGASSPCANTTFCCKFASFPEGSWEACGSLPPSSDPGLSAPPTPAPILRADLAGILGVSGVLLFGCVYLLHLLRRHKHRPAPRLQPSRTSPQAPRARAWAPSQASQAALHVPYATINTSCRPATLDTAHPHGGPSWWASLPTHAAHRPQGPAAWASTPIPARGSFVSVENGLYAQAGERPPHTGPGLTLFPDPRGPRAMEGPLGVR
method_summary: flow cytometry, wild type Jurkat cells, 0.63 ug/mL antibody

# annotated cases, reported gMFI (fold increase over isotype) shown
Antibody 36 (antibody, V domains shown, Purified as IgG; compared with an IgG1 isotype control and detected with anti-human IgG Fc; also called antibody clone number 36; clone 36) VH: QVQLVQSGAEVKKPGSSVKVSCKASGGTFATYAISWVRQAPGQGLEWMGGIFPLSGTANYAQKFQGRVTITADESTSTAYMELSSLRSEDTAVYYCARDTGRGYTRHFWFDPWGQGTLVTVSS VL: DIQMTQSPSSLSASVGDRVTITCRASQSISSYLNWYQQKPGKAPKLLIYAASSLQSGVPSRFSGSGSGTDFTLTISSLQPEDFATYYCQQSDILYTFGGGTKVEIK : 3.5 fold increase over isotype
Antibody 15 (antibody, V domains shown, Purified as IgG; compared with an IgG1 isotype control and detected with anti-human IgG Fc; also called antibody clone number 15; clone 15) VH: EVQLVESGGGLVQPGRSLRLSCTASGFTFGDVAMSWFRQAPGKGLEWVGYIGSKAYGGETEYTASVKGRFTISRDGSKSIAYLQMNSLKTEDTAVYYCARAGHSYGSIASNWFDPWGQGTLVTVSS VL: DIQMTQSPSSLSASVGDRVTITCRASQSISSYLNWYQQKPGKAPKLLIYGASSLQSGVPSRFSGSGSGTDFTLTISSLQPEDFATYYCQQGFYTPWTFGGGTKVEIK : 4 fold increase over isotype
Antibody 2 (antibody, V domains shown, Purified as IgG; compared with an IgG1 isotype control and detected with anti-human IgG Fc; also called antibody clone number 2; clone 2) VH: EVQLVESGGGLVKPGGSLRLSCAASGFTFSEYTMNWVRQAPGKGLEWVSAIVGSGDSTYYADSVKGRFTISRDNSKNTLYLQMNSLRAEDTAVYYCAKDYSSGDWIDYGMDVWGQGTTVTVSS VL: DIQMTQSPSSLSASVGDRVTITCQASQDISNYLNWYQQKPGKAPKLLIYDASNLATGVPSRFSGSGSGTDFTFTISSLQPEDIATYYCQQFDLLPPTFGGGTKVEIK : 4.7 fold increase over isotype
Antibody 58 (antibody, V domains shown, Purified as IgG; compared with an IgG1 isotype control and detected with anti-human IgG Fc; also called antibody clone number 58; clone 58) VH: EVQLVESGGGLVQPGRSLRLSCTASGFTFGDYAMSWFRQAPGKGLEWVGFIGSKFYGGETEYTASVKGRFTISRDGSKSIAYLQMNSLKTEDTAVYYCARGPRRYTYGMDVWGQGTTVTVSS VL: DIQMTQSPSSLSASVGDRVTITCRASQSISSYLNWYQQKPGKAPKLLIYAASSLQSGVPSRFSGSGSGTDFTLTISSLQPEDFATYYCQQSSTPLTFGGGTKVEIK : 4.5 fold increase over isotype

Prompt: Name the reported gMFI (fold increase over isotype) value associated with the binder Antibody 35 (antibody, V domains shown, Purified as IgG; compared with an IgG1 isotype control and detected with anti-human IgG Fc; also called antibody clone number 35; clone 35) VH: QVQLVQSGAEVKKPGSSVKVSCKASGGTFSSAAISWVRQAPGQGLEWMGNIIPIVGIANYAQKFQGRVTITADESTSTAYMELSSLRSEDTAVYYCARDTGRGYTRHFWFDPWGQGTLVTVSS VL: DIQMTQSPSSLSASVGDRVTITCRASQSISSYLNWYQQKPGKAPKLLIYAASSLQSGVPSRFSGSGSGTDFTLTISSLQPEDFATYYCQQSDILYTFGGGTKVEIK
Response: 3.3 fold increase over isotype

src = patent US20250051449A1
